SYSTEM_TESTED: panel of more than 300 wild-type and mutant kinases (313 kinase panel) (Homo sapiens, UniProt Q86Z02)
PROTOCOL_DESCRIPTION: Kinase profiling in a biochemical assay panel (mobility shift assays and ELISA), %-inhibition at 1 μM; selectivity entropy
SETUP_CONDITIONS: kinase HIPK1; compound at 1 μM
OBSERVABLE: %-inhibition of HIPK1

{"SMI": "Cc1ccc(Nc2nccc(N(C)c3ccc4c(C)n(C)nc4c3)n2)cc1S(N)(=O)=O", "RECORDED_MEASUREMENT": "10%"}
{"SMI": "N#CC[C@H](C1CCCC1)n1cc(-c2ncnc3[nH]ccc23)cn1", "RECORDED_MEASUREMENT": "3%"}
{"SMI": "Cc1nc(Nc2ncc(C(=O)Nc3c(C)cccc3Cl)s2)cc(N2CCN(CCO)CC2)n1", "RECORDED_MEASUREMENT": "2.64%"}
{"SMI": "COc1cc2c(Nc3ccc(Br)cc3F)ncnc2cc1OCC1CCN(C)CC1", "RECORDED_MEASUREMENT": "-8%"}
